# kon per record follows
target or test system: T1, full-length hANGPTL4 (amino acid residues 26-406 of SEQ ID NO:476) with a C-terminal hexa-histidine tag (human, UniProt Q9BY76 26-406)
T1 construct: also called hANGPTL4-His; hANGPTL4(26-406)-His
T1 sequence: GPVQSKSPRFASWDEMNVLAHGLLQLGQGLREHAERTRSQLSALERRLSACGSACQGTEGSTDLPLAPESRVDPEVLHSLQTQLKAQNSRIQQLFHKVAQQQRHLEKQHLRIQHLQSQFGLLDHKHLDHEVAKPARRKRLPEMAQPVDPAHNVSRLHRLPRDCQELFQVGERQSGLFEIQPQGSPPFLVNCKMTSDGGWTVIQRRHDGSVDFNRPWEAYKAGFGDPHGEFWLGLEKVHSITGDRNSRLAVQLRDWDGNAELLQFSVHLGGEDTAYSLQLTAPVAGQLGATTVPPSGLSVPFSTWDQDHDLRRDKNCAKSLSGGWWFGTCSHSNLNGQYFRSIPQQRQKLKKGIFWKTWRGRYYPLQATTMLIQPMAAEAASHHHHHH
test: SPR (Biacore), 25° C., pH 5.75, antigen amino-coupled 450 RU
Protocol: Kinetic analysis was performed to measure kₐ and kd, and KD values and half-life of antigen/antibody complex dissociation were calculated. The results are shown in Table 4 (H1H268P) and Table 5 (H1H284P).
Value expressed in M⁻¹ s⁻¹; do not type the unit.

Below: 3 binders and their reported kon.
* H1H268P (antibody, V domains shown, also called entire H1H268 mAb; Full mAb) VH: QVQLQESGAGLLKPSETLSLTCTVYGGSFSIHHWTWIRHPPGKGLEWIGEINHRGSTNYNPSLKSRVTISIDTSKNQFSLKLSAVTAADTAVYYCARGLRFLDWLSSYFDYWGQGTLVTVSS VL: DIQMTQSPSSLSASVGDRVTITCRASQGISDYLAWYQQKPGKVPNLLIYAASALQSGVPSRFSGSGSGTDFTLTISSLQPEDVATYYCQNYNTAPLTFGGGTKVEIK | 923000
* H1H268P Fab fragment (Fab, V domains shown, Fab made by papain digestion of H1H268P (IgG1); also called H1H268 Fab) VH: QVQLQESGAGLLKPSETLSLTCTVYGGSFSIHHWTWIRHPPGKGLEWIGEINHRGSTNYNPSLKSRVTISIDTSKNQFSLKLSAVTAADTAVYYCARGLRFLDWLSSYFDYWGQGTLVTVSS VL: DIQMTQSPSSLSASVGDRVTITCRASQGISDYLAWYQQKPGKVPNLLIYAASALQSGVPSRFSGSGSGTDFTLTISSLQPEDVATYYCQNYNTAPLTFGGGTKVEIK | 444000
* H1H284P Fab fragment (Fab, V domains shown, Fab made by papain digestion of H1H284P (IgG1); also called H1H284 Fab) VH: QVQLVESGGGVVQPGRSLRLSCAASGFTFSSYGMHWVRQAPGKGLEWMAVISFDGGNKNNADSVKGRFTISRDNSKNTLYLQMNSLRAEDTAVYYCAKEGDRSGHPYFYYYGLDVWGQGTTVTVS VL: DIQLTQSPSFLSASVGDRVTITCWASQGISSYLAWYQQKPGKAPKLLIYAASTLQSGVPSRFSGSGSETEFTLTISSLQPEDFATYYCQQLHSYPLTFGGGTKVEIK | 1.21e+06

Field: next binder
Enquiry: Quickly give me recorded kon for H1H284P (antibody, V domains shown, also called entire H1H284 mAb; Full mAb) VH: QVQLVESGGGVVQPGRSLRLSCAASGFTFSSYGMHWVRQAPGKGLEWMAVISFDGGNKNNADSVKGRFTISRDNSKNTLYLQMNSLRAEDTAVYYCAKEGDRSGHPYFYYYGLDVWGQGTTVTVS VL: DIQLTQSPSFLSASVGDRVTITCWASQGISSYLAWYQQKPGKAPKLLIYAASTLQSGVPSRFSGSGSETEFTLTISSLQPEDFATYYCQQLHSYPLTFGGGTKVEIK
Return: 1.93e+06
